Please provide measured Emax for the entries that follow.
# Experimental Target: F508delCFTR (Homo sapiens, UniProt P13569, DEL508-508)
# Construct: expressed in transfected cells; host or cells: CFBE41o- human lung-derived epithelial cells (CFBE4lo-F508delCFTR-HRP), doxycycline-inducible
# Sequence (P13569 with tags, fused parts or gaps DEL508-508): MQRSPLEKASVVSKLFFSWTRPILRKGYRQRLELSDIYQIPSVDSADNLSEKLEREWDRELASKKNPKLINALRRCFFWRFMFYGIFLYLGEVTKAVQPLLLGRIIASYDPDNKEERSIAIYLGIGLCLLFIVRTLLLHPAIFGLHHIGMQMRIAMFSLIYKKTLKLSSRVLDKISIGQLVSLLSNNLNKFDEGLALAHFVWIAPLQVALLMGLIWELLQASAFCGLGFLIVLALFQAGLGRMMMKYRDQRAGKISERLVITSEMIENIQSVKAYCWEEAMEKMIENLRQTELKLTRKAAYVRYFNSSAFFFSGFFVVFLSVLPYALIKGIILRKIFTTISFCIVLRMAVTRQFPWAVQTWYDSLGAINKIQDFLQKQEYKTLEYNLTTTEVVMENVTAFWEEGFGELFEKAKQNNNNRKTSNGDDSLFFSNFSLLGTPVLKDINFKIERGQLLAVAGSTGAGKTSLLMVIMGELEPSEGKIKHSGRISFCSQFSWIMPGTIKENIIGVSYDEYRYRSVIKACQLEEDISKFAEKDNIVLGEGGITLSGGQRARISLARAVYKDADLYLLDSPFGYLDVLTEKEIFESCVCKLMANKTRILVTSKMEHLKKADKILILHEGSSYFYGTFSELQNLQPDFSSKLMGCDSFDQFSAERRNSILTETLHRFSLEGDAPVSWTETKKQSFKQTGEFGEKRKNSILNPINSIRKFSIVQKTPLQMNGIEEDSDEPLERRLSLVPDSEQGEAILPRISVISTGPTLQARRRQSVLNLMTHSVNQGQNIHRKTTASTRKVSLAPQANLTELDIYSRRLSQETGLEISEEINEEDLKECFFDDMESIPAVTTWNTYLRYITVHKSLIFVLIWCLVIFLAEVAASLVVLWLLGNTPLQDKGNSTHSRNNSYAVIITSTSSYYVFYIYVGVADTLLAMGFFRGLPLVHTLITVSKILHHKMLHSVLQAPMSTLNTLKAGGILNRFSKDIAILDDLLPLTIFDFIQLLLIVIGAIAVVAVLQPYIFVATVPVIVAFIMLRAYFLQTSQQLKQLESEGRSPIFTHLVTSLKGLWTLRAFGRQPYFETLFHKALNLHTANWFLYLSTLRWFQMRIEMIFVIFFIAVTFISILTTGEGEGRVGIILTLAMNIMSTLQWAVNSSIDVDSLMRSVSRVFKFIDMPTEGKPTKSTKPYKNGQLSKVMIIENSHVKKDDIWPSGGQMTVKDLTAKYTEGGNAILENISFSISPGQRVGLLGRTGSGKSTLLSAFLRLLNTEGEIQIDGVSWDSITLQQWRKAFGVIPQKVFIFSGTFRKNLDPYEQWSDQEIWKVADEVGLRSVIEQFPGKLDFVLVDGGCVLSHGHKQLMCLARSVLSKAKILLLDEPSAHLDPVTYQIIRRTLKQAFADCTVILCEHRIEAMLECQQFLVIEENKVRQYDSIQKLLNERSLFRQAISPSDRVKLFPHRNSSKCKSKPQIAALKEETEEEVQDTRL
# Assay Procedure: Cell Surface Expression-Horse Radish Peroxidase (CSE-HRP) Assay;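 also: percent of the 2 µM on-plate positive control corrector response above DMSO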
# Assay type: cell-based
# Stated Conditions: without co-corrector; maximum at any tested concentration, normalized to on-plate positive control; read-out: Maximum % activity (without co-corrector)

Query :: Please list Emax recorded for the compound COc1ncc(C(C)(C)C)cc1CN[C@H]1[C@H](C(C)(C)C)[C@@H](C(=O)O)N(C(=O)[C@@H]2CCCCO2)[C@H]1c1cccnc1N(C)C
Result :: > 200%

Query :: Read off the recorded Emax for COc1ncc(C2CC3CCC2C3)cc1CN[C@H]1[C@H](C(C)(C)C)[C@@H](C(=O)O)N(C(=O)C2CCCCC2)[C@H]1c1cccnc1N(C)C (stereo partly drawn)
Result :: > 200%

Query :: Retrieve Emax measured for COc1nc(C(C)(C)C)ccc1CN[C@H]1[C@H](C(C)(C)C)[C@@H](C(=O)O)N(C(=O)C2CCCCC2)[C@H]1c1ccccc1 and print it.
Result :: 100 to 200%

Query :: Write down Emax measured for item COc1ccc(C(C)(C)C)cc1CN[C@H]1[C@H](C(C)(C)C)[C@@H](C(=O)O)N(C(=O)[C@@H]2CCCCO2)[C@H]1c1cccnc1N(C)C
Result :: > 200%

Query :: State, in one line, measured Emax of COC(C)(C)[C@@H]1[C@@H](Nc2cc(C(F)(F)F)cc(C)n2)[C@@H](c2ccccc2)N(C(=O)C2CCCCC2)[C@H]1C(=O)O (racemic)
Result :: < 100%

Query :: Answer with the recorded Emax for the compound listed here: COc1nc(C2CCC2)ccc1CN[C@H]1[C@H](C(C)(C)C)[C@@H](C(=O)O)N(C(=O)C2CCCCC2)[C@H]1c1ccccc1
Result :: 100 to 200%

These measurements were taken from patent US20180099931A1.
